B1: library; numbered along this chain (parent)
chain: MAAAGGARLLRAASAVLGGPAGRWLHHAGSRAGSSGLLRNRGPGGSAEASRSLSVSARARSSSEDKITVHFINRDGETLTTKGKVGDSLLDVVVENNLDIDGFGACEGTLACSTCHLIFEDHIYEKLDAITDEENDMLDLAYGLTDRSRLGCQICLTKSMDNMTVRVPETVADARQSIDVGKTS

variants of: B1; assay: scaled log2 fold change in cell abundance, elesclomol vs control (0 = silent mean, 1 = nonsense mean) (scaled log2 ratio); higher = higher viability under elesclomol (loss of FDX1 cuproptosis function); conditions: with ABC1 FDX1 KO; elesclomol 5 nM; glucose 10 mM; 14 days;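 further: variant abundance is its share of total variant reads in each endpoint sample, from next-generation sequencing of the integrated ORF PCR-amplified out of genomic DNA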
MEASURED_METRIC: scaled log2 fold change
Keep the answer to the number alone.

The following variants have reported results that may help.
[[record]]
change = "T109W"
measured_metric = "scaled log2 fold change"
reported = -0.657

[[record]]
change = "A13C"
measured_metric = "scaled log2 fold change"
reported = 0.224


Lab note: next variant to report on.
Please report scaled log2 fold change for the following variant: I118A
0.0431
